// values below are reported Kd
Target: T1, growth differentiation factor 11 (GDF11) (UniProt O95390 299-407)
T1 sequence (looked up): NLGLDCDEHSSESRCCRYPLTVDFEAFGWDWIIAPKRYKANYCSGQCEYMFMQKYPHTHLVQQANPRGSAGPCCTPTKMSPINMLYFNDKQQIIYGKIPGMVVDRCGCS
Test: SPR (Biacore 3000), receptor captured on chip, ligand in solution
Note: unit nM is implicit; provide only the numeric part.

// known answers, use as guide
binder="ActRIIa/bΔ9m3 variant (SEQ ID NO: 41) (receptor, Engineered extracellular ActRIIa variant; not shown: Fusion partner and its linker) GAILGRSETQECLFYNANWELDRTNQTGVERCEGEKDKRLHCFATWRNISGSIEIVKKGCWLDDFNCYDRTDCVETKENPQVYFCCCEGNMCNEKFSYFPEMEVTQPTS" measure=Kd units_symbol=nM reported=0.117
binder="ActRIIa/bΔ9m2 variant (SEQ ID NO: 38) (receptor, Engineered extracellular ActRIIa variant; not shown: Fusion partner and its linker) GAILGRSETQECLFYNANWELDRTNQTGVERCEGEKDKRLHCYATWRNISGSIEIVKKGCWLDDINCYDRTDCVETKENPQVYFCCCEGNMCNEKFSYFPEMEVTQPTS" measure=Kd units_symbol=nM reported=0.222
binder="ActRIIa/bΔ9 variant (SEQ ID NO: 58) (receptor, Engineered extracellular ActRIIa variant; not shown: Fusion partner and its linker) GAILGRSETQECLFYNANWELDRTNQTGVERCEGEKDKRLHCYATWRNISGSIEIVKKGCWLDDFNCYDRTDCVETKENPQVYFCCCEGNMCNEKFSYFPEMEVTQPTS" measure=Kd units_symbol=nM reported=0.115
binder="ActRIIa/b variant (SEQ ID NO: 69) (receptor, Engineered extracellular ActRIIa variant; not shown: Carrier and linker) GAILGRSETQECLFYNANWELERTNQTGVERCEGEKDKRLHCYATWRNISGSIEIVKKGCWLDDFNCYDRTDCVETEENPQVYFCCCEGNMCNEKFSYFPEMEVTQPTS" measure=Kd units_symbol=nM reported=0.186
binder="ActRIIa/bΔ9m4 variant (SEQ ID NO: 44) (receptor, Engineered extracellular ActRIIa variant; not shown: Carrier and linker) GAILGRSETQECLFYNANWELDRTNQTGVEPCEGEKDKRLHCYATWRNISGSIEIVKKGCWLDDFNCYDRTDCVETKENPQVYFCCCEGNMCNEKFSYFPEMEVTQPTS" measure=Kd units_symbol=nM reported=0.394

In: Read the entry ActRIIa/bmax1 variant (SEQ ID NO: 70) (receptor, Engineered extracellular ActRIIa variant; not shown: Carrier and linker) GAILGRSETQECLYYNANWELERTNQTGVERCEGEQDKRLHCYATWRNISGSIEIVKKGCWLDDFNCYDRTDCVETEENPQVYFCCCEGNMCNEKFSYFPEMEVTQPTS and write its reported Kd.
Out: 0.236

In: Read the entry ActRIIa/bmax3 variant (SEQ ID NO: 72) (receptor, not shown: Carrier and linker) GAILGRSETQECLFYNANWELERTNQTGVERCEGEKDKRLHCYATWRNISGSIEIVKKGCWLDDFNCYDRTDCVETEENPQVYFCCCEGNMCNEKFSYFPEMEVTQPTSNPVTPK and write its reported Kd.
Out: 0.214

In: Read the entry ActRIIa/bΔ9 min variant (SEQ ID NO: 6) (receptor, Engineered extracellular ActRIIa variant; not shown: Fusion partner and its linker) GAILGRSETQECLFYNANWELDRTNQTGVEPCEGEKDKRLHCFATWKNISGSIEIVKKGCWLDDINCYDRTDCVETKENPQVYFCCCEGNMCNEKFSYFPEMEVTQPTS and write its reported Kd.
Out: 0.114

In: Read the entry ActRIIa/bmax2 variant (SEQ ID NO: 71) (receptor, not shown: Carrier and linker) GAILGRSETQECLFYNANWELERTNQTGVERCEGEKDKRLHCYATWRNISGSIEIVKKGCWLDDFNCYDRTDCVETEENPQVYFCCCEGNMCNEKFSYFPEMEVTQPTSNP and write its reported Kd.
Out: 0.113

Source of measurements: patent US20190282663A1
